This collection of values is drawn from patent US9994881B2.

I'd appreciate it if you could supply Specific activities of selected thioesterases on Acetoacetyl-CoA values for the items below.
Assay: thioesterase activity (production of TNB at 412 nm)
Assay type: biochemical
Details: crude cell extract; 200 μM substrate; expressed from pCA24N

Molecule	Reading
FadM: E. coli long-chain acyl-CoA thioesterase (protein, UniProt P77712 1-132, looked up) Long-chain acyl-CoA …: MQTQIKVRGYHLDVYQHVNNARYLEFLEEARWDGLENSDSFQWMTAHNIAFVVVNININYRRPAVLSDLLTITSQLQQLNGKSGILSQVITLEPEGQVVADALITFVCIDLKTQKALALEGELREKLEQMVK	0.042 ± 0.004 μmol/mg protein/min
TesA: E. coli multifunctional acyl-CoA thioesterase I and protease I and lysophospholipase L1 (protein, UniProt P0ADA1 27-208, looked up) Thioesterase 1/protease …: ADTLLILGDSLSAGYRMSASAAWPALLNDKWQSKTSVVNASISGDTSQQGLARLPALLKQHQPRWVLVELGGNDGLRGFQPQQTEQTLRQILQDVKAANAEPLLMQIRLPANYGRRYNEAFSAIYPKLAKEFDVPLLPFFMEEVYLKPQWMQDDGIHPNRDAQPFIADWMAKQLQPLVNHDS	0.044 ± 0.005 μmol/mg protein/min

API: the following record is the query input.
Query :: Any idea what its Specific activities of selected thioesterases on Acetoacetyl-CoA is? The molecule is YbgC: E. coli Acyl-CoA thioesterase (protein, UniProt P0A8Z3 1-134, looked up) Acyl-CoA thioester hydrolase …: MNTTLFRWPVRVYYEDTDAGGVVYHASYVAFYERARTEMLRHHHFSQQALMAERVAFVVRKMTVEYYAPARLDDMLEIQTEITSMRGTSLVFTQRIVNAENTLLNEAEVLVVCVDPLKMKPRALPKSIVAEFKQ
Result :: 0.065 ± 0.002 μmol/mg protein/min
